The origin of these recorded values is patent US11352340B2.

targetOrSystem: PI3Kγ (p110γ) Recombinant Human Protein (Homo sapiens (Human))
Sequence (P48736 whole entry): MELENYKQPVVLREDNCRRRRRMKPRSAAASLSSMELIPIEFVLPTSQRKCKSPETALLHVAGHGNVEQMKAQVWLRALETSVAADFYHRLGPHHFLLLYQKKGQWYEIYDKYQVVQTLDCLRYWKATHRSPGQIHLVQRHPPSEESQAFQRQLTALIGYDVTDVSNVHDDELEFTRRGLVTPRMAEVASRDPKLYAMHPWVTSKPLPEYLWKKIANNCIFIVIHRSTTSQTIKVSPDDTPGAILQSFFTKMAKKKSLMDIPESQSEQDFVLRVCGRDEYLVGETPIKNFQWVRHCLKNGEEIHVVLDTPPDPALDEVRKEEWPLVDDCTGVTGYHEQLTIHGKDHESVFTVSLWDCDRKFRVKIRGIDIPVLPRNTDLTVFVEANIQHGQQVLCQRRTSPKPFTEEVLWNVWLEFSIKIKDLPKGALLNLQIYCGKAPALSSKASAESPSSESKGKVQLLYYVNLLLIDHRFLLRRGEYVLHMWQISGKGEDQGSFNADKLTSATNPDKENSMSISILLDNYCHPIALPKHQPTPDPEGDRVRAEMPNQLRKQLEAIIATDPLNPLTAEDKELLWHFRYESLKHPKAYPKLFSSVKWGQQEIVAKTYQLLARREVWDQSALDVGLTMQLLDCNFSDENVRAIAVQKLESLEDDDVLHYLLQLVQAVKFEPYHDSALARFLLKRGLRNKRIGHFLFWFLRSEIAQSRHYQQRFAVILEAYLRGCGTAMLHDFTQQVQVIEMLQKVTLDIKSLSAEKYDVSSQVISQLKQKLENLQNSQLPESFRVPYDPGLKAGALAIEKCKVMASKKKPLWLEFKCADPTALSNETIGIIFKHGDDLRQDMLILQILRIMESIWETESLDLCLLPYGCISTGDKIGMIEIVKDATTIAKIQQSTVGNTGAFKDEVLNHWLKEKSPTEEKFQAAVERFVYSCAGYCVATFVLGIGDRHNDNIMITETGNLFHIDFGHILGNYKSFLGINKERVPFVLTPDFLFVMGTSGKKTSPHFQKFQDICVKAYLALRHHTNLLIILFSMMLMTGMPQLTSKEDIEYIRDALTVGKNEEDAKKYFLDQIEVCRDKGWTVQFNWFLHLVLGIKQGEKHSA
procedureText: PI3K-γ Scintillation Proximity Assay
Format: biochemical
experimentalParameters: read-out: PI3K-gamma SPA IC50
pIC50: −log10 of the molar value. Where a name gives a salt, the structure may show the parent alone.
Please go through the items and note down their pIC50.

# lookup: pIC50 of Cc1nc(-c2cc(-c3cncc(C4=CCN(S(C)(=O)=O)C4)c3)ccn2)[nH]c1C [Example 237] ≥ 7.30

Look up pIC50: O=C(Nc1cncc(-c2ccnc(-c3ncc(-c4ccccc4)[nH]3)c2)c1)c1cccc(Cl)c1 [Example 134] < 6.30

pIC50 lookup needed for Cc1nc(-c2cc(-c3cncc(C(=O)N4CCC(c5ccncc5)C4)c3)ccn2)[nH]c1C (racemic) [Example 182] , thanks. ≥ 6.30

Return reported pIC50; argument: Cc1nc(-c2cc(-c3cncc(C4=CCN(C(=O)OC(C)(C)C)C4)c3)ccn2)[nH]c1C [Example 235] ≥ 6.30

Look up pIC50 for this compound: Cc1[nH]c(-c2cc(-c3cnn(Cc4ccc(Cl)cc4)c3)ccn2)nc1C(=O)N[C@H]1CCOC1 [Example 295] ≥ 7.30

GET /values?readout=pIC50&item= COc1cncc(-c2ccnc(-c3nnc(NC(C)C)[nH]3)c2)c1 [Example 67, trifluoroacetate salt] ≥ 6.30

Please give the measured pIC50 for this compound: O=C(CCn1cc(-c2ccnc(-c3ncc(-c4ccccc4)[nH]3)c2)cn1)NC1CCCC1 [Example 59, trifluoroacetate salt] < 6.30

====

targetOrSystem: PI3Kδ (p110δ/p85α) Recombinant Human Protein (Homo sapiens (Human), UniProt O00329)
Sequence (O00329 whole entry): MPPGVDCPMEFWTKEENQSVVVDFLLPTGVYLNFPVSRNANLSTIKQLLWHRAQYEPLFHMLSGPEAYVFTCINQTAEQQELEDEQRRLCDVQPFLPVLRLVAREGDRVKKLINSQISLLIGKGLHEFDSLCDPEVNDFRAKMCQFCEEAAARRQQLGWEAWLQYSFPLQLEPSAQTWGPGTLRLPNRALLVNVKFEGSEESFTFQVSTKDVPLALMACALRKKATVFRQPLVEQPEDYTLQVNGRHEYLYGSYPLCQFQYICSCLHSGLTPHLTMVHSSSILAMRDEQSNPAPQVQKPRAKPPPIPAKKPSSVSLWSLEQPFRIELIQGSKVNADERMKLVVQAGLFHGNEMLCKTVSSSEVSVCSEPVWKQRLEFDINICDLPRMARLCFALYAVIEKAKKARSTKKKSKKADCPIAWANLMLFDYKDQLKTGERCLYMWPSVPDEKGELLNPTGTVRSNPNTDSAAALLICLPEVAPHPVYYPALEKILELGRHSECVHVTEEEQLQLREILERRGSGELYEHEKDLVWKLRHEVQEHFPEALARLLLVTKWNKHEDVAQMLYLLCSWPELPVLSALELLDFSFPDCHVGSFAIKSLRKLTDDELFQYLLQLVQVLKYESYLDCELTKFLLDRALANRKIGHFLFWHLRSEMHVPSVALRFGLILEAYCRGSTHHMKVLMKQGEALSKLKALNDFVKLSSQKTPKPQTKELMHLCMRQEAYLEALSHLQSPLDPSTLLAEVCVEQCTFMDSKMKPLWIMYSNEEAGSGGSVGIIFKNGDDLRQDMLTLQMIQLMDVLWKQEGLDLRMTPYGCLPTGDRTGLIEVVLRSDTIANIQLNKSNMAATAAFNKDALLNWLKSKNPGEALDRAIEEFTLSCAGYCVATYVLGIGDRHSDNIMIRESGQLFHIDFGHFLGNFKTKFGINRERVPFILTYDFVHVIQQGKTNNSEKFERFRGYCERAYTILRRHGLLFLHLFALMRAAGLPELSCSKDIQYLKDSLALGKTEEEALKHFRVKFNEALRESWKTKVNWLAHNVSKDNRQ
Sequence (P27986 whole entry partner): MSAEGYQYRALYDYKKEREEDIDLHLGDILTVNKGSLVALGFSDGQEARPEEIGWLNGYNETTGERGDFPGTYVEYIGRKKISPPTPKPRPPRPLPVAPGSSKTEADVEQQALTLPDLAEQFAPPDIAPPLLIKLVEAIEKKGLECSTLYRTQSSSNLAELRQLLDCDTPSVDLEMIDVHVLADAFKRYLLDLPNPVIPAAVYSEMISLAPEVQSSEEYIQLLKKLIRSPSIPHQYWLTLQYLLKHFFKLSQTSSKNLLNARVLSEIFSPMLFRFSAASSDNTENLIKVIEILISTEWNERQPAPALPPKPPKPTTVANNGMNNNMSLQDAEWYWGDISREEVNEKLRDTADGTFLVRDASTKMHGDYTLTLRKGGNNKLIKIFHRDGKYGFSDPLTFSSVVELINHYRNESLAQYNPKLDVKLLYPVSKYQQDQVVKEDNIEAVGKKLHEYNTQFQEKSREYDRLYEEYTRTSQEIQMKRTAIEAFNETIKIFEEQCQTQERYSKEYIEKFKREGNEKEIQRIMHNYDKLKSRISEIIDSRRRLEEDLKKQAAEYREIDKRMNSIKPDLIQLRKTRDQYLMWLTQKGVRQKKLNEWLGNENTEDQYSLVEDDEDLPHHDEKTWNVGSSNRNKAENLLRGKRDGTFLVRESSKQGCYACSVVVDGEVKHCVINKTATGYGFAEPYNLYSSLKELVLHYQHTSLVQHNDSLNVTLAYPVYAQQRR
procedureText: PI3Kδ Scintillation Proximity Assay
experimentalParameters: read-out: PI3K-delta SPA IC50
Counter-ions that a name gives are not always drawn.
Please go through the items and note down their IC50.

What IC50 value was documented for this compound, Cc1nc(-c2cc(C3=CCCN(C(=O)c4ccccc4)C3)ccn2)[nH]c1C [Example 222, trifluoroacetate salt] ? > 500 nM

Please report the recorded IC50 for Cc1nc(-c2cc(-c3cncc(C(=O)NCC4CCCC4)c3)ccn2)[nH]c1C [Example 207, trifluoroacetate salt] . ≤ 500 nM

# get_value(readout='IC50', item= Cc1nc(-c2cc(-c3cncc(C(=O)N(C)CCCO)c3)ccn2)[nH]c1C [Example 209] ) ≤ 100 nM

Need IC50 of Cc1nc(-c2cc(-c3cncc(Nc4ccccc4)c3)ccn2)[nH]c1C [Example 233] , thanks. ≤ 500 nM

Which measured IC50 value corresponds to CCc1cnc(-c2cc(-c3cncc(S(C)(=O)=O)c3)ccn2)[nH]1 [Example 110, trifluoroacetate salt] ? ≤ 50 nM

Data request, read-out IC50, for COc1cncc(-c2ccnc(-c3nc(C(=O)O)c(C(F)(F)F)[nH]3)c2)c1 [Example 81, trifluoroacetate salt] > 500 nM

Quick one: IC50 of Cc1nc(-c2cc(-c3cncc(C(=O)N4CCCN(C)CC4)c3)ccn2)[nH]c1C [Example 200] ? ≤ 500 nM

====

targetOrSystem: PI3Kδ (p110δ/p85α) Recombinant Human Protein (Homo sapiens (Human))
procedureText: PI3Kδ Scintillation Proximity Assay
experimentalParameters: read-out: PI3K-delta SPA IC50
pIC50: −log10 of the molar value. Where a name gives a salt, the structure may show the parent alone.
property: pIC50

Returns the measured pIC50 for the input compound. Input: Cc1nc(-c2cc(C3=CCN(CC4CCOCC4)C3)ccn2)[nH]c1C [Example 230, trifluoroacetate salt] < 6.30

State the recorded pIC50 for this entry: CCS(=O)(=O)n1cc(-c2ccnc(-c3ncc(-c4ccccc4)[nH]3)c2)cn1 [Example 45, trifluoroacetate salt] ≥ 6.30

I have this compound here, CS(=O)(=O)c1cncc(-c2ccnc(-c3ncc(C4CCCCC4)[nH]3)c2)c1 [Example 106, Trifluoroacetate Salt] , and I need its recorded pIC50. ≥ 7.30

# lookup: pIC50 of COC[C@@H](NC(=O)c1nc(-c2cc(-c3cncc(N4CCOCC4)c3)ccn2)[nH]c1C)c1ccccc1 [Example 276, trifluoroacetate salt] ≥ 7.30

Need pIC50, item "COc1cncc(-c2ccnc(-c3cnc(-c4ccccc4)[nH]3)c2)c1" ≥ 7.30

Endpoint output: pIC50 of "Cc1[nH]c(-c2cc(-c3cncc(N4CCOCC4)c3)ccn2)nc1C(=O)N1CC(C(F)(F)F)C1" . Value? ≥ 7.30

# get_value(readout='pIC50', item= "CCN(C)C(=O)c1nc(-c2cc(-c3cncc(N4CCOCC4)c3)ccn2)[nH]c1C" ) ≥ 6.30
